target: UniProtKB P08069
Sequence (P08069 31-736 limits assumed): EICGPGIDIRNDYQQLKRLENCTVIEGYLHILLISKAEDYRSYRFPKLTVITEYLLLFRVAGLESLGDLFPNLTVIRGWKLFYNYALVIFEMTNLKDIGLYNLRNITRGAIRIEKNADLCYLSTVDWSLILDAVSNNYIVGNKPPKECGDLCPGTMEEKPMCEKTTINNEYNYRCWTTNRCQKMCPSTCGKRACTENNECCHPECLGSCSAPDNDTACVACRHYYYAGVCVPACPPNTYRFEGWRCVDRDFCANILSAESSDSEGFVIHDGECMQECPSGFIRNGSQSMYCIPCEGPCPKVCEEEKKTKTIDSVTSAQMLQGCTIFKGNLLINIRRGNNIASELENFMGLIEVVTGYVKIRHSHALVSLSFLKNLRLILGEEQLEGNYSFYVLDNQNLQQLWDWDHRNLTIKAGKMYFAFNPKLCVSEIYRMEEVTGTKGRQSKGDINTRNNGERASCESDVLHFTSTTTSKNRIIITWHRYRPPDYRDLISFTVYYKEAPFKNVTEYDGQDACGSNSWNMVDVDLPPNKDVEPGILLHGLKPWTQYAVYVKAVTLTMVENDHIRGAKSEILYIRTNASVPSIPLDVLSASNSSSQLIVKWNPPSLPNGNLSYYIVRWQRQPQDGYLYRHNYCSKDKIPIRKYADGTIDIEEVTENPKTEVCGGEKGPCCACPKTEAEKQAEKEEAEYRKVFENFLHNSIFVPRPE
Sequence (P08069 741-1367 limits assumed): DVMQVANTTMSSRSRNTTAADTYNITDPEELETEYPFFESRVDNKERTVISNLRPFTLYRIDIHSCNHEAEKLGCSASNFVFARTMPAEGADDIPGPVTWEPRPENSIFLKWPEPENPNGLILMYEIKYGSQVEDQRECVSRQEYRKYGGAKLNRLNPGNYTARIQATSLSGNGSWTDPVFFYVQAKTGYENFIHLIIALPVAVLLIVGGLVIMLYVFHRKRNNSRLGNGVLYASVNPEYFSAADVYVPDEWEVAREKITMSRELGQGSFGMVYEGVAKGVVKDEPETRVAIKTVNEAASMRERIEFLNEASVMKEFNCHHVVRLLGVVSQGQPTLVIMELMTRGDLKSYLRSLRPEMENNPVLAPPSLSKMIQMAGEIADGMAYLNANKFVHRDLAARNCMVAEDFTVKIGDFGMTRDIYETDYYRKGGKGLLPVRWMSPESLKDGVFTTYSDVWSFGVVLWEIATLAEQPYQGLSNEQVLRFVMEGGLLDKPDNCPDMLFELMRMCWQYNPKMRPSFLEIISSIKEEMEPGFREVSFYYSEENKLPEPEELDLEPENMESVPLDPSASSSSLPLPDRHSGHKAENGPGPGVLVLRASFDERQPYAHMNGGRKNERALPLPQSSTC
pIC50: −log10 of the molar value.
Readout Kind: pIC50

{"Given Smiles": "COc1cc(N2CCN(CCN(C)C)C2=O)ccc1Nc1ncc(Cl)c(Nc2ccccc2S(=O)(=O)C(C)C)n1", "Endpoint Result": 6.96}

###

tested on: KARPAS-299; assay: cells; details: Homo sapiens, KARPAS-299, 72 h
Description: Cytotoxicity against human KARPAS299 cells incubated for 72 hrs by MTT assay
pIC50: −log10 of the molar value.
Readout Kind: pIC50

{"Given Smiles": "COc1cc(N2CCN(CCCN)C2=O)ccc1Nc1ncc(Cl)c(Nc2ccccc2S(=O)(=O)C(C)C)n1", "Endpoint Result": 6.77}
{"Given Smiles": "COc1cc(N2CCN(CC(N)=O)C2=O)ccc1Nc1ncc(Cl)c(Nc2ccccc2S(=O)(=O)C(C)C)n1", "Endpoint Result": 7.01}
{"Given Smiles": "COc1cc(N2CCN(CCN(C)C)C2=O)ccc1Nc1ncc(Cl)c(Nc2ccccc2S(=O)(=O)C(C)C)n1", "Endpoint Result": 7.85}
{"Given Smiles": "COc1cc(N2CCN(CCN3CCOCC3)C2=O)ccc1Nc1ncc(Cl)c(Nc2ccccc2S(=O)(=O)C(C)C)n1", "Endpoint Result": 6.41}
{"Given Smiles": "COc1cc(N2CCN(CC(=O)N3CCC[C@H]3CO)C2=O)ccc1Nc1ncc(Cl)c(Nc2ccccc2S(=O)(=O)C(C)C)n1", "Endpoint Result": 6.85}
{"Given Smiles": "COc1cc(N2CCN(CC(=O)N3CCN(CCO)CC3)C2=O)ccc1Nc1ncc(Cl)c(Nc2ccccc2S(=O)(=O)C(C)C)n1", "Endpoint Result": 6.96}
{"Given Smiles": "COc1cc(N2CCN(CC(=O)N3CCCC3)C2=O)ccc1Nc1ncc(Cl)c(Nc2ccccc2S(=O)(=O)C(C)C)n1", "Endpoint Result": 6.41}
{"Given Smiles": "CNC(=O)CN1CCN(c2ccc(Nc3ncc(Cl)c(Nc4ccccc4S(=O)(=O)C(C)C)n3)c(OC)c2)C1=O", "Endpoint Result": 6.12}

###

experiment: AUCt in Sprague-Dawley rat at 10 mg/kg, po by UPLC/MS/MS analysis; assay type: ADME, organism-based; settings: in vivo
Readout Kind: AUC(0-t) (ng·h/mL)

{"Given Smiles": "Cc1cc(Nc2ncc(Cl)c(Nc3ccccc3S(=O)(=O)C(C)C)n2)c(OC(C)C)cc1C1CCNCC1", "Endpoint Unit": "ng·h/mL", "Endpoint Result": 1100}
{"Given Smiles": "COc1cc(N2CCNC2=O)ccc1Nc1ncc(Cl)c(Nc2ccccc2S(=O)(=O)C(C)C)n1", "Endpoint Unit": "ng·h/mL", "Endpoint Result": 1400}
{"Given Smiles": "COc1cc(N2CCN(CCN(C)C)C2=O)ccc1Nc1ncc(Cl)c(Nc2ccccc2S(=O)(=O)C(C)C)n1", "Endpoint Unit": "ng·h/mL", "Endpoint Result": 3420}

###

System: Epidermal growth factor receptor (Homo sapiens) | Read-out: IC50
Sequence (P00533 whole entry): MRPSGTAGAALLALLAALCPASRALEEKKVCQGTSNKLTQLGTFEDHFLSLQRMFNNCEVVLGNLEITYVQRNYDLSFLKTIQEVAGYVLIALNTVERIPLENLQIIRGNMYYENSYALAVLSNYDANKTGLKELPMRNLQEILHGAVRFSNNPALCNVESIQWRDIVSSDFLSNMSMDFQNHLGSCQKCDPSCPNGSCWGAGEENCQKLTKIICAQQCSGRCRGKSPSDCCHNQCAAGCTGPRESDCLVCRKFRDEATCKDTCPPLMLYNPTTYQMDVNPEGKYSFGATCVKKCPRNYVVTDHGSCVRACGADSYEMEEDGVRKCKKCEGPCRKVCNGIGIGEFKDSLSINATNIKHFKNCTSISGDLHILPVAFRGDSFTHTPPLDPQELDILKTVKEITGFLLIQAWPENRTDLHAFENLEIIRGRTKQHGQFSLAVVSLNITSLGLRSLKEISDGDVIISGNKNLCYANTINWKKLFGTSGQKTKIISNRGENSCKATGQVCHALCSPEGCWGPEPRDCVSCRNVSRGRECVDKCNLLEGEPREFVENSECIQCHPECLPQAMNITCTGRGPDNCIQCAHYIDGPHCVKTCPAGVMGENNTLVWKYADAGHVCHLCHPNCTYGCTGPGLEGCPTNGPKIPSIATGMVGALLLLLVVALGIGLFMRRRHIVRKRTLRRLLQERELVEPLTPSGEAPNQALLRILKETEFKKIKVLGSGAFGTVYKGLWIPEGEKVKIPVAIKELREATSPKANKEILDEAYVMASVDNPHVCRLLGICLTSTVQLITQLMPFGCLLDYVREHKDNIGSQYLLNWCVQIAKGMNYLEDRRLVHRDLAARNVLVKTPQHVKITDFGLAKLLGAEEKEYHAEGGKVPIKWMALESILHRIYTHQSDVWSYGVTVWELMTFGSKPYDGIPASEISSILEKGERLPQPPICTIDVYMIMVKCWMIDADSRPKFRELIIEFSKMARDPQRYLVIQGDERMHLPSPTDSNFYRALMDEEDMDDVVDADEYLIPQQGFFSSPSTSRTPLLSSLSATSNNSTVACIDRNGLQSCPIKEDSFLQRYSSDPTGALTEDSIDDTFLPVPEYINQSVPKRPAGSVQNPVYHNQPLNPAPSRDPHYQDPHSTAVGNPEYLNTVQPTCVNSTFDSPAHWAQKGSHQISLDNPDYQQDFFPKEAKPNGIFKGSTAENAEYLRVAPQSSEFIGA

{"Given Smiles": "COc1cc(N2CCN(CCN(C)C)C2=O)ccc1Nc1ncc(Cl)c(Nc2ccccc2S(=O)(=O)C(C)C)n1", "Target Or Test System": "Epidermal growth factor receptor (Homo sapiens)", "IC50": "> 1000 nM"}
{"Given Smiles": "COc1cc(N2CCN(CC(N)=O)C2=O)ccc1Nc1ncc(Cl)c(Nc2ccccc2S(=O)(=O)C(C)C)n1", "Target Or Test System": "Epidermal growth factor receptor (Homo sapiens)", "IC50": "> 1000 nM"}
{"Given Smiles": "COc1cc(N2CCN(CC(=O)N(C)C)C2=O)ccc1Nc1ncc(Cl)c(Nc2ccccc2S(=O)(=O)C(C)C)n1", "Target Or Test System": "Epidermal growth factor receptor (Homo sapiens)", "IC50": "598 nM"}
{"Given Smiles": "COc1cc(N2CCNC2=O)ccc1Nc1ncc(Cl)c(Nc2ccccc2S(=O)(=O)C(C)C)n1", "Target Or Test System": "Epidermal growth factor receptor (Homo sapiens)", "IC50": "765 nM"}
{"Given Smiles": "COc1cc(N2CCN(CC(=O)N3CCC(=O)CC3)C2=O)ccc1Nc1ncc(Cl)c(Nc2ccccc2S(=O)(=O)C(C)C)n1", "Target Or Test System": "Epidermal growth factor receptor (Homo sapiens)", "IC50": "> 1000 nM"}
{"Given Smiles": "COc1cc(N2CCN(CC(=O)N3CCN(C)CC3)C2=O)ccc1Nc1ncc(Cl)c(Nc2ccccc2S(=O)(=O)C(C)C)n1", "Target Or Test System": "Epidermal growth factor receptor (Homo sapiens)", "IC50": "> 1000 nM"}
{"Given Smiles": "COc1cc(N2CCN(CCCN)C2=O)ccc1Nc1ncc(Cl)c(Nc2ccccc2S(=O)(=O)C(C)C)n1", "Target Or Test System": "Epidermal growth factor receptor (Homo sapiens)", "IC50": "> 1000 nM"}

Numbers sourced from ChEMBL document CHEMBL4346688.
